Tested on: M14
Assay: NCI tumour cell line growth inhibition, 48 h
Activity calls are given as the source filed them. Rule as the data show it: active = GI50 up to about 1.1 µM and inactive = higher.
Please reply with one of these outcomes: T for active, F for inactive

QUERY: Record request — test call for O=C(OCc1ccccc1)N1N=NC2C3CC(OCc4ccccc4)(OCc4ccccc4)C(O3)C21 (configuration not stated)
RESULT: F

QUERY: Record request — test call for COc1cc(/C=C(\NC(=O)c2ccccc2)c2nc3cncnc3[nH]2)cc(OC)c1OC
RESULT: F

QUERY: Record request — test call for O=C(/C=C/c1ccccc1O)c1ccc([N+](=O)[O-])cc1
RESULT: F

QUERY: Record request — test call for COc1c(Br)cc(Br)c(OC)c1-c1[nH]c(Br)c(Br)c1Br
RESULT: F

QUERY: Record request — test call for O=C1C(=O)N(c2ccc(Cl)cc2)C(=O)/C(=N/c2cccc3c(=O)[nH][nH]c(=O)c23)C1c1nc2ccccc2o1 (configuration not stated)
RESULT: F

QUERY: Record request — test call for Cc1nc2n(c1/C=C1/C(=O)Nc3cccc(Cl)c31)CCS2
RESULT: F

QUERY: Record request — test call for Cc1cnc2nc(-c3ccc4ccccc4c3)cc(O)c2c1
RESULT: T

QUERY: Record request — test call for Oc1cc2c3c(c1)CCCN3CCC2
RESULT: F

QUERY: Record request — test call for COc1ccc(C2C3C(=O)C=CC(=O)C3[C@@H]2C)cc1OC (some centres not stated)
RESULT: F

QUERY: Record request — test call for COC(=O)C(C)Oc1ccc(O)cc1 (configuration not stated)
RESULT: F

QUERY: Record request — test call for CNc1ccc2c(c1)[C@@]1(C)c3ccccc3[C@@H](C2)N1C
RESULT: F

QUERY: Record request — test call for COC[n+]1cc2cc(OC)c(OC)cc2c2ccc3cc(OC)c(OC)cc3c21
RESULT: F

QUERY: Record request — test call for COc1ccc(/C=N/n2c(C)n[nH]c2=O)c(OC)c1
RESULT: F

QUERY: Record request — test call for O=S(=O)([N-]c1nc2ccccc2nc1-[n+]1ccccc1)c1ccccc1
RESULT: F

QUERY: Record request — test call for O=S(=O)(O)c1ccc(O)c(/N=N/c2c(O)ccc3ccccc23)c1
RESULT: F

QUERY: Record request — test call for N#CCCCC[N+]12CN3CN(CN(C3)C1)C2
RESULT: F

QUERY: Record request — test call for C[C@@]1(Cc2ccccc2)C(=O)N2[C@@H](CO)C(c3ccccc3)O[C@]2(C)c2ccccc21 (some centres not stated)
RESULT: F

QUERY: Record request — test call for COC(=O)c1ccccc1/C=C1\Cc2ccc3c(c2C1=O)CCCC3
RESULT: F

QUERY: Record request — test call for COc1ccc(N(C)C(=O)N(C)c2ccc([N+](=O)[O-])cc2)cc1
RESULT: F

QUERY: Record request — test call for O=C1CCC2COc3ccc(O)c1c32 (configuration not stated)
RESULT: F

QUERY: Record request — test call for Nc1c([N+](=O)[O-])cc2c3c(cccc13)CC2
RESULT: F

QUERY: Record request — test call for O=c1[nH]nc(-c2ccccc2)n1O
RESULT: F

QUERY: Record request — test call for C[C@H](CCC1SC1(C)C)C1CCC2(C)C3=C(CC[C@]12C)[C@@]1(C)CC[C@H](O)C(C)(C)C1CC3 (some centres not stated)
RESULT: F

QUERY: Record request — test call for O=C1N(C2CCCCC2)CC12CCCCC2
RESULT: F

QUERY: Record request — test call for COc1cc(C2c3cc4c(cc3OC(NNC(N)=O)C2C)OCO4)cc(OC)c1OC (configuration not stated)
RESULT: T

QUERY: Record request — test call for COC1C(OC(=O)/C=C/C=C/C=C/C=C\C(=O)O)CCC2(CO2)C1C1(C)OC1CC=C(C)C (configuration not stated)
RESULT: F

QUERY: Record request — test call for N#CC1(c2nc3ccccc3o2)C(=O)C(=O)N(C2C3CC4CC(C3)CC2C4)C(=O)C1=O (configuration not stated)
RESULT: F

QUERY: Record request — test call for O=C(O)CC(Cc1ccccc1Cl)C(=O)O (configuration not stated)
RESULT: F

QUERY: Record request — test call for O=c1[nH]nc(-c2ccc([N+](=O)[O-])cc2)n1/N=C/c1ccc([N+](=O)[O-])cc1
RESULT: F

QUERY: Record request — test call for COC(=O)C1=C(C)NC(C)=C(C(=O)OC)C1c1cccc(NO)c1
RESULT: F

QUERY: Record request — test call for CCOC(=O)c1cn2c(n1)sc1cc([N+](=O)[O-])ccc12
RESULT: F

QUERY: Record request — test call for COC(=O)/C(=N/Nc1cccc(Cl)c1)C(C(=O)C(=O)Nc1cccc(Cl)c1C)c1nc2ccccc2nc1C (configuration not stated)
RESULT: F

QUERY: Record request — test call for CC[C@H]1C=CCC[C@@]2(C[C@@H]3CC[C@@H]4[C@H](C(=O)OCCCCCCCCCCCCCCCC(=O)N(CCCN)CCCCN)[C@]5(CCC[C@@H](C)O5)NC(=[N+]34)N2)O1
RESULT: T

QUERY: Record request — test call for C=C1COC(/C=C(\C)CC/C=C(\C)CCl)C1 (configuration not stated)
RESULT: F

QUERY: Record request — test call for COC(=O)/C1=C/C=C\C[C@@]2(C)CC(c3ccoc3)OC(=O)[C@@H]2CC[C@H]1C (some centres not stated)
RESULT: F

QUERY: Record request — test call for N#Cc1nc(C2CCC(=O)O2)oc1N (configuration not stated)
RESULT: F

QUERY: Record request — test call for O=C1CCC(=O)C(C(=O)CCC(=O)Nc2cccc(Cl)c2)C1 (configuration not stated)
RESULT: F

QUERY: Record request — test call for NC(C(=O)O)c1ccc(C(=O)O)cc1 (configuration not stated)
RESULT: F

QUERY: Record request — test call for COC(=O)/C(=C/c1ccc(OC)cc1)C(C(=O)O)=C(C)C
RESULT: F

QUERY: Record request — test call for C=C[C@H]1CN2CCc3c([nH]c4c([C@@H]5CCCN5C)c(O)ccc34)[C@@H]2C[C@@H]1C[C@H]1c2[nH]c3ccccc3c2CCN1C
RESULT: T

QUERY: Record request — test call for CC[C@@]12C=CC(=S)N(CCSc3ccccc3)[C@@H]1c1c(n(S(=O)(=O)c3ccc(OC)cc3)c3ccccc13)CC2
RESULT: F

QUERY: Record request — test call for COc1cc(NCCC(=O)O)c2ncccc2c1
RESULT: F
